system: HIV-1YU2; assay: Viral infection assay, YU2 Env (wild type and mutants); assay type: cell-based; conditions: YU2 Env L317A
recorded_metric: IC50 (µM)
Response body: numeric value in µM, unit text excluded.

Q: Which measured IC50 value corresponds to O=C(N/N=C/c1ccc(O)cc1)Nc1cccc2nsnc12 [Compound 18A] ?
Result: 10.2

* * *

tested on: HIV-1YU2; assay: Viral infection assay, YU2 Env (wild type and mutants); assay type: cell-based; settings: YU2 Env double mutant W69L + S375W
recorded_metric: pIC50
The scale used: pIC50 is minus the common logarithm of the concentration in molar units.

Q: Which measured pIC50 value corresponds to O=C(N/N=C/c1ccc(O)cc1)Nc1cccc2nsnc12 [Compound 18A] ?
Result: 4.82

* * *

system: HIV-1JR-FL; test: Viral infection assay, recombinant HIV-1 pseudotyped with JR-FL Env (wild type and mutants), Cf2Th-CD4/CCR5 cells; format: cell-based; details: JR-FL Env Y435A; read-out: IC50
recorded_metric: IC50
Answer by giving the amount and then stating its unit.

Q: Which measured IC50 value corresponds to O=C(N/N=C/c1ccc(O)cc1)Nc1cccc2nsnc12 [Compound 18A] ?
Result: 12.7 µM

* * *

system: HIV-1JR-FL; assay: Viral infection assay, recombinant HIV-1 pseudotyped with JR-FL Env (wild type and mutants), Cf2Th-CD4/CCR5 cells; type: cell-based; details: JR-FL Env K155A; read-out: IC50
recorded_metric: IC50 (µM)
Response body: numeric value in µM, unit text excluded.

Q: Recorded IC50 for O=C(N/N=C/c1ccc(O)cc1)Nc1cccc2nsnc12 [Compound 18A] with HIV-1JR-FL, please?
Result: 2.1

* * *

test system: HIV-1YU2; assay: Viral infection assay, YU2 Env (wild type and mutants); format: cell-based; conditions: YU2 Env T257S
recorded_metric: pIC50
The scale used: pIC50 is minus the common logarithm of the concentration in molar units.

Q: Recorded pIC50 for O=C(N/N=C/c1ccc(O)cc1)Nc1cccc2nsnc12 [Compound 18A] with HIV-1YU2, please?
Result: 5.16

* * *

tested on: HIV-1YU2; assay: Viral infection assay, YU2 Env (wild type and mutants); type: cell-based; details: YU2 Env I109W
recorded_metric: IC50 (µM)
Response body: numeric value in µM, unit text excluded.

Q: Which measured IC50 value corresponds to O=C(N/N=C/c1ccc(O)cc1)Nc1cccc2nsnc12 [Compound 18A] ?
Result: 2.9

* * *

Test system: HIV-1JR-FL
Assay: Viral infection assay, recombinant HIV-1 pseudotyped with JR-FL Env (wild type and mutants), Cf2Th-CD4/CCR5 cells
Assay type: cell-based
Details: JR-FL Env I109W; read-out: IC50
Protocol: HIV-1 Env mutants. Mutations were introduced into the plasmid expressing the fulllength HIV-1YU2 or HIV-1JR-FL Envs using the QuikChange II site-directed mutagenesis protocol or the QuikChange multi site-directed mutagenesis kit (Stratagene). […] Viral infection assay. […] The activity of the firefly luciferase, which was used as a reporter protein in the system, was measured with a Centro LB 960 luminometer (Berthold Technologies, Oak Ridge, Tenn.). […]
recorded_metric: pIC50
The scale used: pIC50 is minus the common logarithm of the concentration in molar units.

Q: Which measured pIC50 value corresponds to O=C(N/N=C/c1ccc(O)cc1)Nc1cccc2nsnc12 [Compound 18A] ?
Result: 5.80

* * *

test system: HIV-1YU2; assay: Viral infection assay, YU2 Env (wild type and mutants); type: cell-based; details: YU2 Env N377A
recorded_metric: IC50 (µM)
Response body: numeric value in µM, unit text excluded.

Q: Which measured IC50 value corresponds to O=C(N/N=C/c1ccc(O)cc1)Nc1cccc2nsnc12 [Compound 18A] ?
Result: 3.3

* * *

test system: HIV-1YU2; experiment: Viral infection assay, YU2 Env (wild type and mutants); format: cell-based; conditions: YU2 Env V255I
recorded_metric: pIC50
The scale used: pIC50 is minus the common logarithm of the concentration in molar units.

Q: Which measured pIC50 value corresponds to O=C(N/N=C/c1ccc(O)cc1)Nc1cccc2nsnc12 [Compound 18A] ?
Result: 5.27

* * *

system: all CCR5-using HIV-1 isolates; experiment: Viral infection assay, panel of CCR5-using HIV-1 isolates; assay type: cell-based; details: Cf2Th-CD4/CCR5 cells; read-out: average IC50 for all CCR5-using HIV-1 isolates
recorded_metric: IC50 (µM)
Response body: numeric value in µM, unit text excluded.

Q: Which measured IC50 value corresponds to O=C(N/N=C/c1ccc(O)cc1)Nc1cccc2nsnc12 [Compound 18A] ?
Result: 5.7

* * *

system: HIV-1JR-FL; test: Viral infection assay, recombinant HIV-1 pseudotyped with JR-FL Env (wild type and mutants), Cf2Th-CD4/CCR5 cells; type: cell-based; settings: JR-FL Env W479A; read-out: IC50
recorded_metric: IC50 (nM)
Response body: numeric value in nM, unit text excluded.

Q: Recorded IC50 for O=C(N/N=C/c1ccc(O)cc1)Nc1cccc2nsnc12 [Compound 18A] with HIV-1JR-FL, please?
Result: 800

* * *

system: HIV-1YU2; assay: Viral infection assay, YU2 Env (wild type and mutants); type: cell-based; conditions: YU2 Env W479A
recorded_metric: pIC50
The scale used: pIC50 is minus the common logarithm of the concentration in molar units.

Q: Which measured pIC50 value corresponds to O=C(N/N=C/c1ccc(O)cc1)Nc1cccc2nsnc12 [Compound 18A] ?
Result: 5.89

* * *

tested on: CEM #21 cells; test: Viability assay, CEM#21 target cells; type: cell-based
recorded_metric: CC50 (µM)
Response body: numeric value in µM, unit text excluded.

Q: Which measured CC50 value corresponds to O=C(N/N=C/c1ccc(O)cc1)Nc1cccc2nsnc12 [Compound 18A] ?
Result: 26.6

* * *

test system: HIV-1YU2; test: Viral infection assay, YU2 Env (wild type and mutants); assay type: cell-based; conditions: YU2 Env V255G
recorded_metric: pIC50
The scale used: pIC50 is minus the common logarithm of the concentration in molar units.

Q: Which measured pIC50 value corresponds to O=C(N/N=C/c1ccc(O)cc1)Nc1cccc2nsnc12 [Compound 18A] ?
Result: 5.10

Sourced from patent US20170298056A1
